Test system: MALME-3M melanoma
run_description: NCI tumour cell line growth inhibition, 48 h; in the data active means GI50 below about 0.43 µM; inactive means the rest
Response enum: class 1 (active), class 0 (inactive)

Input: So what was the verdict on CCSc1nc(N=Cc2ccccc2O)c2cn[nH]c2n1 in this test?
Output: class 1

Input: What is the recorded call for this compound in the test? Cc1cccc(NC2=C(Cl)C(=O)c3nc(C)ccc3C2=O)c1
Output: class 0

Input: Which outcome was entered for the compound CCOC(=O)Nc1c(C)nc2ccccn12 in this test?
Output: class 0

* * *

Test system: ACHN renal
run_description: NCI tumour cell line growth inhibition, 48 h; in the data active means GI50 below about 0.43 µM; inactive means the rest
Respond only with the outcome that fits, drawn from True = active, False = inactive

Input: Answer briefly: the call reported for COc1cc(/C=C2\CCCCC3=C2N=C2SC(C)=CN2C3c2cc(OC)c(OC)c(OC)c2)cc(OC)c1OC (stereo unspecified) in this assay.
Output: False

Input: Could you kindly confirm the outcome this assay logged for C=CC12CCN(CC1)C(C(O)c1ccnc3ccc(OC)cc13)C2 (stereo unspecified) ?
Output: False

Input: I'd appreciate the recorded outcome for COc1ccc(-c2cc(=O)oc3c4c(ccc23)OCN(Cc2ccc(F)cc2)C4)cc1 from this test.
Output: False

Input: Dear all, I need the recorded test outcome for Cc1nc2sccn2c1-c1nc2sccn2c1/C=C1/C(=O)Nc2ccccc21 , thank you.
Output: False

Input: Check the results log: what was the call for C=C(C)C(C1C=C(CCC(C=O)=C(C)C)C(=O)O1)C1(OC)C=C(C)C(=O)O1 (stereo unspecified) ?
Output: False

Input: Per the assay record, what outcome was assigned to Nc1nc(Cl)nc2c1ncn2C1CC(O)C(CO)O1 (stereo unspecified) ?
Output: False

Input: // return assay outcome for CCSc1nc(N=Cc2ccccc2O)c2cn[nH]c2n1
Output: False

Input: How did this test come out for COC(=O)/C=C/c1cc(OC(C)=O)c2c(c1)C(C(=O)OC)C(c1ccc(OC(C)=O)c(OC(C)=O)c1)O2 (stereo unspecified) ?
Output: True

Input: Give the logged outcome of this assay for the following molecule: O=C(Nc1nc(-c2c[nH]c3ccccc23)cs1)c1n[nH]c(=O)c2ccccc12
Output: False

Input: Record request — test call for O=C(Nc1ncc(Cc2cccc(C(F)(F)F)c2)s1)c1ccc2c(c1)OCCO2
Output: False

Input: State the result this test recorded for NC(N)=Nc1nc2ccccc2o1 .
Output: False

Input: Please let me know the test result on file for COC(=O)C1=CN(CC2=CC(=O)C(C)=CC2=O)C=C(C(=O)OC)C1c1ccccc1OC .
Output: False

Input: Lab log entry: CO[C@@H]1CC[C@]2(C)OC[C@H](C)[C@@H]3C[C@@H](C)[C@@H](OC(C)=O)[C@@H]4[C@H]3[C@@H]2O[C@H]4C[C@@]1(C)O — outcome as called in the assay?
Output: False

Input: Per the assay record, what outcome was assigned to CN(C)CCN1CCC(Cc2ccccc2)CC1 ?
Output: False

Input: How did this test come out for COc1ccc(-c2c(C#N)c(N3CCOCC3)nc3[nH]c(=S)[nH]c(=S)c23)cc1OC ?
Output: False

Input: Which outcome did this test record for the molecule CCCCNCCCNCCCNC(=O)c1csc(-c2csc(CCNC(=O)C(NC(=O)C(C)C(O)C(C)NC(=O)C(NC(=O)c3nc(C(CC(N)=O)NCC(N)C(N)=O)nc(N)c3C)C(OC3OC(CO)C(O)C(O)C3OC3OC(CO)C(O)C(OC(N)=O)C3O)c3cnc[nH]3)C(C)O)n2)n1 (stereo unspecified) ?
Output: True
